# test: TLR3 IRF3 reporter activation blockers – cell-based, poly I:C stimulus, luciferase, 10K MLSCN set, primary screen (AID 602277)
# runConditions: HEK293-TLR3 RL24 IRF3 luciferase reporter, at 10 µM, active compounds read high
Mark FALSE for inhibition values under 10%, and TRUE for everything at or above.

Here are 5 compounds together with their reported answers.
compound | groupLabel
O=C(CSc1nnc2ccccn12)c1ccccc1 | FALSE
CCN1C(=O)CC(C(=O)Nc2ccc(F)cc2)SC1=Nc1ccc2c(c1)OCO2 (stereo not drawn) | TRUE
OCCNc1nc2ccc(Cl)cc2[nH]1 | FALSE
Cc1nn(C)c(C)c1NC(=O)CSc1nc(Cc2ccccc2)nc2c1cnn2-c1ccccc1 | FALSE
COc1ccc(NC(=O)c2cc(C)on2)cc1OC | FALSE

INPUT: Please tell me: is the compound Cc1cc2cc(CN(CC3CCCO3)C(=O)c3cnccn3)c(=O)[nH]c2cc1C (stereo not drawn) at or over 10% in terms of inhibition?
OUTPUT: FALSE

INPUT: Reported inhibition at or above 10%? C=CCn1c(SCC(=O)c2cc(C)n(C(C)COC)c2C)nc2sc(C)c(C)c2c1=O (stereo not drawn)
OUTPUT: TRUE

INPUT: # check: inhibition of "O=C(OCC(=O)N1CCc2ccccc21)C1=COCCO1" is greater than or equal to 10%
OUTPUT: FALSE

INPUT: Is inhibition at least 10%? Consider "CCOC(=O)c1sc(NC(=O)CSc2nnc3c4ccccc4n(CC)c3n2)nc1C"
OUTPUT: FALSE

INPUT: Could you please find out whether "CN(CC(=O)Nc1ccc2c(c1)OCCO2)S(=O)(=O)c1ccc(Br)s1" has inhibition that meets 10% or exceeds it?
OUTPUT: TRUE

INPUT: Decide: is the reported value of inhibition for "CC(C)(NC(=O)N1CCCC1)c1cccc(C(C)(C)NC(=O)N2CCCC2)c1" equal to or greater than 10%?
OUTPUT: TRUE

INPUT: Determine whether this compound has inhibition no lower than 10%: "COc1cccc(N2CCN(Cc3cccnc3)CC2)c1"
OUTPUT: TRUE

INPUT: Threshold query (inhibition >= 10%) on "Cn1c(=O)c2c(nc(SCCCC#N)n2Cc2ccccc2F)n(C)c1=O"
OUTPUT: TRUE

INPUT: In plain terms: is recorded inhibition at least 10% for "Oc1ccc2cccnc2c1" ?
OUTPUT: FALSE

INPUT: Quick check: does "COc1ccc(CNC(=O)c2nnn(Cc3ccc(OC)cc3)c2N)cc1" have inhibition greater than or equal to 10%?
OUTPUT: TRUE
